Reported Minimum Inhibitory Concentration E. coli BW25113 ΔdapF values are given for each entry in this list.
tested on: E. coli BW25113 ΔdapF; assay type: cell-based, Escherichia coli; settings: impaired cell-wall mutant
recorded.endpoint: Minimum Inhibitory Concentration E. coli BW25113 ΔdapF (µg/mL)

{"columns": ["molecule", "lt.gt.eq", "assay.value"],
 "data": [
  ["Cc1[nH]c(C(=O)Nc2nc3ccc(C(=O)NCC(=O)N4CCN(c5cc6c(cc5F)c(=O)c(C(=O)O)cn6C5CC5)CC4)cc3s2)c(Cl)c1Cl", ">", 64],
  ["Cc1[nH]c(C(=O)Nc2nc3ccc(C(=O)NCCC(=O)N4CCN(c5cc6c(cc5F)c(=O)c(C(=O)O)cn6C5CC5)CC4)cc3s2)c(Cl)c1Cl", ">", 64],
  ["Cc1[nH]c(C(=O)Nc2nc3ccc(C(=O)NCCOCCN4CCN(c5cc6c(cc5F)c(=O)c(C(=O)O)cn6C5CC5)CC4)cc3s2)c(Cl)c1Cl.Cl [Compound 11a]", "=", 32],
  ["Cc1[nH]c(C(=O)Nc2nc3c(OCc4ccccc4)cc(C(=O)N4CCN(c5cc6c(cc5F)c(=O)c(C(=O)O)cn6C5CC5)CC4)cc3s2)c(Cl)c1Cl", ">", 64],
  ["Cc1[nH]c(C(=O)Nc2nc3ccc(C(=O)N4CCN(c5cc6c(cc5F)c(=O)c(C(=O)O)cn6C5CC5)CC4)cc3s2)c(Cl)c1Cl", "=", 4],
  ["Cc1[nH]c(C(=O)Nc2nc3c(OCc4ccccc4)cc(C(=O)NCCOCCN4CCN(c5cc6c(cc5F)c(=O)c(C(=O)O)cn6C5CC5)CC4)cc3s2)c(Cl)c1Cl.Cl [Compound 11b]", "=", 8]
]}
